species on record: Homo sapiens; test: Selectivity ratio of EC50 for human oxytocin receptor to EC50 for human vasopressin V1a receptor
Bridge positions count the residues as written; N and C are the ends. Square brackets hold non-standard residues; d marks the D form. Peptide text beside a SMILES is read from it. * marks the point of attachment. Ala(cPent) = N[C@@H](CC1CCCC1)C(=O)O; Orn(iPr) = CC(C)NCCC[C@H](N)C(=O)O; Dab(iPr) = CC(C)NCC[C@H](N)C(=O)O; Aad = N[C@@H](CCCC(=O)O)C(=O)O; Orn = NCCC[C@H](N)C(=O)O; Dab = NCC[C@H](N)C(=O)O; Ac4c = NC1(C(=O)O)CCC1; NHCH2CH2OH = OCCN*
Assignment: determine reported Ratio EC50 for the given molecules.

Prompt: // lookup Ratio EC50 for CC[C@H](C)[C@@H]1NC(=O)[C@H](CC2CCCC2)NC(=O)[C@@H](N)CSSC[C@@H](C(=O)N2CCC[C@H]2C(=O)N[C@@H](CCN)C(=O)NCC(N)=O)NC(=O)[C@H](CC(N)=O)NC(=O)[C@H](CC(N)=O)NC1=O (H-C[Ala(cPent)]INNCP[Dab]G-NH2; disulfide 1-6)
Response: > 900

Prompt: Data request, read-out Ratio EC50, for CC[C@H](C)[C@@H]1NC(=O)[C@H](Cc2ccccc2)NC(=O)[C@@H](N)CSSC[C@@H](C(=O)N2CCC[C@H]2C(=O)N[C@@H](CCCNC(C)C)C(=O)NCC(N)=O)NC(=O)[C@H](CC(N)=O)NC(=O)[C@H](CC(N)=O)NC1=O (H-CFINNCP[Orn(iPr)]G-NH2; disulfide 1-6)
Response: 78

Prompt: Look at this molecule and give its reported Ratio EC50. CCNC(=O)C[C@@H]1NC(=O)[C@H]([C@@H](C)CC)NC(=O)[C@H](Cc2ccccc2)NC(=O)[C@@H](N)CSSC[C@@H](C(=O)N2CCC[C@H]2C(=O)N[C@@H](CCCN)C(=O)NCC(N)=O)NC(=O)[C@H](CC(N)=O)NC1=O (H-CFID(NHEt)NCP[Orn]G-NH2; disulfide 1-6)
Response: > 1700

Prompt: Using the record for CC[C@H](C)[C@@H]1NC(=O)[C@H](Cc2ccccc2)NC(=O)[C@@H](N)CSSC[C@@H](C(=O)N2CCC[C@H]2C(=O)N[C@@H](CCCN)C(=O)NCC(N)=O)NC(=O)[C@H](CC(N)=O)NC(=O)[C@H](CC(=O)NCCO)NC1=O (H-CFID(NHCH2CH2OH)NCP[Orn]G-NH2; disulfide 1-6) , report its Ratio EC50.
Response: > 1200

Prompt: Form field: reported Ratio EC50 of CC[C@H](C)[C@@H]1NC(=O)[C@H](Cc2ccccc2)NC(=O)[C@@H](N)CSSC[C@@H](C(=O)N2CCC[C@H]2C(=O)N[C@@H](CCNC(C)C)C(=O)NCC(N)=O)NC(=O)[C@H](CC(N)=O)NC(=O)[C@H](CCCC(N)=O)NC1=O (H-CFI[Aad](NH2)NCP[Dab(iPr)]G-NH2; disulfide 1-6)
Response: > 550

Prompt: Requested field: Ratio EC50. Item: CC[C@H](C)[C@@H]1NC(=O)C2(CCC2)NC(=O)[C@@H](N)CSSC[C@@H](C(=O)N2CCC[C@H]2C(=O)N[C@@H](CCN)C(=O)NCC(N)=O)NC(=O)[C@H](CC(N)=O)NC(=O)[C@H](CCC(N)=O)NC1=O (H-C[Ac4c]IQNCP[Dab]G-NH2; disulfide 1-6)
Response: 190

Prompt: State the recorded Ratio EC50 for this entry: CC[C@H](C)[C@@H]1NC(=O)[C@H](CC2CCCC2)NC(=O)[C@@H](N)CSSC[C@@H](C(=O)N2CCC[C@H]2C(=O)N[C@@H](CCN)C(=O)NCC(N)=O)NC(=O)[C@H](CC(N)=O)NC(=O)[C@H](CCC(N)=O)NC1=O (H-C[Ala(cPent)]IQNCP[Dab]G-NH2; disulfide 1-6)
Response: > 12000
